assay.protocol: Phase 1 Stage 1 clinical pharmacokinetics of SC ZA co-administered with rHuPH20
Assay type: in vivo, human
settings: human, serum, sc, […], Subj 1; ZA […] SC; inf 0.554 hr; PH20 23928 U; read-out: AUC (0-inf)
quantity.name: AUC(0-inf) (ng·h/mL)
All answers are understood in ng·h/mL, so give the number only.

Exercise: Provide one value: measured AUC(0-inf) of O=P(O)(O)C(O)(Cn1ccnc1)P(=O)(O)O
Key: 29.9

----------
assay.protocol: Pharmacokinetics of ZA in pig serum after IV or SC infusion with or without rHuPH20 (LC-MS-MS, non-compartmental analysis)
Assay type: in vivo
settings: female, Yorkshire, pig, serum, intravenous, […], animal ID 57, Study Group 1, IV 20 min infusion, ZA […], rHuPH20 0 U/mL, time 0.333 h; read-out: Zoledronic Acid Serum Concentration
quantity.name: concentration at 0.333 h
Respond with the figure and its unit, in that order.

Exercise: Provide one value: measured concentration at 0.333 h of O=P(O)(O)C(O)(Cn1ccnc1)P(=O)(O)O [ZA]
Key: 388 ng/mL

----------
assay.protocol: Pharmacokinetics of ZA in pig serum after IV or SC infusion with or without rHuPH20 (LC-MS-MS, non-compartmental analysis)
Type: in vivo
settings: female, Yorkshire, pig, serum, intravenous, […], animal ID 61, Study Group 1, IV 20 min infusion, ZA […], rHuPH20 0 U/mL, time 0.5 h; read-out: Zoledronic Acid Serum Concentration
Protocol: A pharmacokinetic study of zoledronic acid (ZA) co-administered with rHuPH20 in female Yorkshire swines was conducted. […] Serum concentration of ZA was determined using a qualified LC-MS-MS assay after derivatization with diazomethane (Zhu, L S et al. (2006) Rapid Commun. Mass Spectrom. 20: 3421-3426; “Qualification Data of An LC-MS/MS Method for the Determination of Zoledronate in Porcine Serum”, MDS Pharma Services Study No. AA43671-01, Report Date 14 Sep. 2007). […]
quantity.name: concentration at 0.5 h (ng/mL)
All answers are understood in ng/mL, so give the number only.

Exercise: Provide one value: measured concentration at 0.5 h of O=P(O)(O)C(O)(Cn1ccnc1)P(=O)(O)O
Key: 299

----------
assay.protocol: Phase 1 Stage 1 clinical pharmacokinetics of SC ZA co-administered with rHuPH20
Type: in vivo, human
settings: human, serum, sc, AUC (0-12h), ZA 2 mg SC + 24000 U rHuPH20; median, n=3
quantity.name: AUC(0-t) (ng·h/mL)
All answers are understood in ng·h/mL, so give the number only.

Exercise: Provide one value: measured AUC(0-t) of O=P(O)(O)C(O)(Cn1ccnc1)P(=O)(O)O [ZA]
Key: 218

----------
assay.protocol: Pharmacokinetics of ZA in pig serum after IV or SC infusion with or without rHuPH20 (LC-MS-MS, non-compartmental analysis)
Type: in vivo
settings: female, Yorkshire, pig, serum, intravenous, […], animal ID 67, Study Group 1, IV 20 min infusion, ZA […], rHuPH20 0 U/mL, time 1 h; read-out: Zoledronic Acid Serum Concentration
quantity.name: concentration at 1 h (ng/mL)
All answers are understood in ng/mL, so give the number only.

Exercise: Provide one value: measured concentration at 1 h of O=P(O)(O)C(O)(Cn1ccnc1)P(=O)(O)O
Key: 77.8
